# experimental-system: Fuc(a1-2)[Gal(a1-4)]Gal(b1-4)GlcNAc
# measurement-notes: glycan array binding signal (z-score within array); higher = stronger binding
# condition-info: glycan notation: IUPAC condensed, linker removed
This is one part of a sample in which the strongest signals are shown more often than they occur.
Lab note: compare glycan array binding signal (z-score) against -0.4. Equal or greater, write TRUE. Smaller, write FALSE.

// known answers, use as guide
-- ask Hi, just wondering whether KISKRILTGKK [NK11 (Sus scrofa)] shows glycan array binding signal (z-score) of -0.4 or higher.
-- reply TRUE

-- ask Hi, just wondering whether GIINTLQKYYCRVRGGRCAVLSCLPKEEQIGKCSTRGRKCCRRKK [Beta-Defensin 3 (Homo sapiens), P81534] shows glycan array binding signal (z-score) of -0.4 or higher.
-- reply FALSE

Next:
-- ask Hi, just wondering whether Eosinophil cationic protein (ECP) (Homo sapiens), P12724 (protein) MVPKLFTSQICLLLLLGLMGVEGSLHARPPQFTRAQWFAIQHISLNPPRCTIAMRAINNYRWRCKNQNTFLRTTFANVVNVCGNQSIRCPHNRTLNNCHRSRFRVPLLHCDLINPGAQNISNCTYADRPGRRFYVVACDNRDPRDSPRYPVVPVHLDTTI shows glycan array binding signal (z-score) of -0.4 or higher.
-- reply FALSE

-- ask Hi, just wondering whether rCnSL-proA (Clitocybe nebularis) (protein) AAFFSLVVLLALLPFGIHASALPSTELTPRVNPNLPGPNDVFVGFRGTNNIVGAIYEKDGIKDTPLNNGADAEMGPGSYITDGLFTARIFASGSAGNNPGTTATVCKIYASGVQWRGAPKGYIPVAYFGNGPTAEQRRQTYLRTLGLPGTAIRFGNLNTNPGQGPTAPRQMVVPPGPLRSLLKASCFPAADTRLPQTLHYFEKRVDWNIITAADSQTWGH shows glycan array binding signal (z-score) of -0.4 or higher.
-- reply TRUE

-- ask Hi, just wondering whether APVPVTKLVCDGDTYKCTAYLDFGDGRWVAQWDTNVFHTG [PhoSpL (Pholiota squarrosa)] shows glycan array binding signal (z-score) of -0.4 or higher.
-- reply TRUE
